# experiment_description: Photophysical property characterization (absorption/emission spectra, quantum yield)
# Format: physicochemical
# recorded_conditions: acetonitrile (MeCN), 10 µM, Extended Data Table 1
# Protocol: For absorption and emission spectra measurements, the molecules were diluted to 10 µM in various solvents, including EtOH, DMSO, MeCN, H2O, and MeOH. Prior to analysis, the prepared samples were equilibrated at 25°C for 5 min to ensure consistent conditions. Subsequently, their absorption and emission spectra were measured. The absolute fluorescence quantum yield of these probes was measured using the FLS1000 Photoluminescence Spectrometer (Edinburgh Instruments Ltd.).
Please go through the items and note down their λAbs b, spectra assays data.
Answers are plain numbers, in nm.

Worked examples, 3 compounds total:
>  <compound>
COc1cc(OCc2ccccn2)ccc1/C=C/c1cc(/C=C/c2ccc3cc[nH]c3c2)[nH]n1 [PE859]

>  <units>
nm

>  <λAbs b, spectra assays data>
335

$$$$
>  <compound>
Cn1c(C(=O)Nc2ccc(OC(F)(F)F)cc2)cc2c(=O)n3ccccc3nc21 [B5]

>  <units>
nm

>  <λAbs b, spectra assays data>
382

$$$$
>  <compound>
Cc1ccc(Cl)cc1NC(=O)c1cc2c(=O)n3cccc(C)c3nc2n1C [B3]

>  <units>
nm

>  <λAbs b, spectra assays data>
370

$$$$

Take each entry in turn and give its λAbs b, spectra assays data.
1. Cc1ccc(-n2c(/C=C\c3ccc(F)c(F)c3)nc3ccccc3c2=O)c(C)c1 [B6]
2. COC1=CC(c2cc3ccccc3[nH]2)=N/C1=C\c1[nH]c(C)cc1C [obatoclax]

1. 330
2. 480
